# Target or system: T1, EsCas13d, nuclease-dead (Eubacterium siraeum, UniProt B0MS50, R295A;H300A;R849A;H854A)
# T1 sequence: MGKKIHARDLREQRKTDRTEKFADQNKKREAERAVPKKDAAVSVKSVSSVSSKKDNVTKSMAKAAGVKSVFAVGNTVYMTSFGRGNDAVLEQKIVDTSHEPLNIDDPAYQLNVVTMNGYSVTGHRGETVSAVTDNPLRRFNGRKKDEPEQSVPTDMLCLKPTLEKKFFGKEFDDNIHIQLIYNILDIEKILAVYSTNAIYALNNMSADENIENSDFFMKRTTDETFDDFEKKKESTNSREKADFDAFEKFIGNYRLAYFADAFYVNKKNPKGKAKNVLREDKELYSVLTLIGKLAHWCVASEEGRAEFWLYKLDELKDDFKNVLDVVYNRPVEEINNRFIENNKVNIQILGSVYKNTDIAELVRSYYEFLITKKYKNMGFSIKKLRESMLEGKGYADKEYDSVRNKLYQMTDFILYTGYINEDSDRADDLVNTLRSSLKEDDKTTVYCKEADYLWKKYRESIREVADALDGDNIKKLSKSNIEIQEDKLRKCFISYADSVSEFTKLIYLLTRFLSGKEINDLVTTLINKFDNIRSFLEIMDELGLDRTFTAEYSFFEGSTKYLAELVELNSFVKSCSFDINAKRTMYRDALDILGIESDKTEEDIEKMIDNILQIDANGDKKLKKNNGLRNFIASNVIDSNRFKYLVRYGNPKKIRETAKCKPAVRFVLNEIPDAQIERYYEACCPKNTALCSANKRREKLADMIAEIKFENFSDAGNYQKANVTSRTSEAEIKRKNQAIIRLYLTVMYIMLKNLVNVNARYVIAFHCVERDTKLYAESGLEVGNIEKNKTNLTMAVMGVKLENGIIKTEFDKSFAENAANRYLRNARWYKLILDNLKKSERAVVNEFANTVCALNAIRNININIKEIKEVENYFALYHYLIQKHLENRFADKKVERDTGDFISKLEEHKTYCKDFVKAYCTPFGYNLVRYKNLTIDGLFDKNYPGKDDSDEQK
# Assay info: crRNA (strand 1, pre-loaded); Mg2+; 40 mM Tris-HCl pH 7.5, 150 mM NaCl, 6 mM MgCl2, 1 mM DTT, 0.1% Tween-20, 0.2 mg/ml BSA; 25 C; 10 min per concentration, then washed
# Condition context: tags: His6-TwinStrep-SUMO cleaved; N-terminal SNAP kept (SNAP-Surface 488); label: 3' end held by stalled T7 RNA polymerase
Readout name: Kd (nM)

Binder	Readout name	Recorded result
target 1 insA 3' of 22,insC 3' of 11 (mixed) RNA 1: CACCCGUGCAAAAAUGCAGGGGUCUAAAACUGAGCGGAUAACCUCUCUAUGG RNA 2: GGGAAUGGAUCCACAUCUACGAAUUCGUACACAUAGAGAGGUCUAUCCGCUCACCGAGAUCGGAAGAGCACACGU	Kd	60
target 2 MT 5'PFS UAC 3'PFS AAG (mixed) RNA 1: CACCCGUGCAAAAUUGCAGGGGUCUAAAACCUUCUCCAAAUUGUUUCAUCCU RNA 2: GGGAAUGGAUCCACAUCUACGAAUUCUACAGGAUGAAACAAUUUGGAGAAGAAGAGAUCGGAAGAGCACACGU	Kd	5.8
target 3 insG 3' of 6,insC 3' of 4 (mixed) RNA 1: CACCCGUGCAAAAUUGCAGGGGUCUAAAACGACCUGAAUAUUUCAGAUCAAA RNA 2: GGGAAUGGAUCCACAUCUACGAAUUCGUUUUUGAUCUGAAAUAUUCGAGCGUCUGCAGAUCGGAAGAGCACACGU	Kd	13.2
target 2 MT 5'PFS ACU 3'PFS CGC (mixed) RNA 1: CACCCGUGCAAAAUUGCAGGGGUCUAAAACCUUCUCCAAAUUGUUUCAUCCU RNA 2: GGGAAUGGAUCCACAUCUACGAAUUCACUAGGAUGAAACAAUUUGGAGAAGCGCAGAUCGGAAGAGCACACGU	Kd	7.1
target 1 insG 3' of 9,insA 3' of 3 (mixed) RNA 1: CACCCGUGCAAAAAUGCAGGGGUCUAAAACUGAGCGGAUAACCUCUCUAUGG RNA 2: GGGAAUGGAUCCACAUCUACGAAUUCGUACCAUAGAGAGGUUAGUCCGCUACACCGAGAUCGGAAGAGCACACGU	Kd	10.3
target 1 MT 5'PFS UAU 3'PFS UUU (mixed) RNA 1: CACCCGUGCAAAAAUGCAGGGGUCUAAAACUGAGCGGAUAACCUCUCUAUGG RNA 2: GGGAAUGGAUCCACAUCUACGAAUUCUAUCCAUAGAGAGGUUAUCCGCUCAUUUAGAUCGGAAGAGCACACGU	Kd	31
target 2 MT 5'PFS CUC 3'PFS CUG (mixed) RNA 1: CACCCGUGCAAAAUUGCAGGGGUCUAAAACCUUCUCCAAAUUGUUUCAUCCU RNA 2: GGGAAUGGAUCCACAUCUACGAAUUCCUCAGGAUGAAACAAUUUGGAGAAGCUGAGAUCGGAAGAGCACACGU	Kd	4.4
target 1 insU 3' of 6 (mixed) RNA 1: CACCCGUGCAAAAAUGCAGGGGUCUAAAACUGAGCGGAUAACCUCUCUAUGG RNA 2: GGGAAUGGAUCCACAUCUACGAAUUCGUACCAUAGAGAGGUUAUCCUGCUCACCGAGAUCGGAAGAGCACACGU	Kd	12.8
target 2 MT 5'PFS ACG 3'PFS CGA (mixed) RNA 1: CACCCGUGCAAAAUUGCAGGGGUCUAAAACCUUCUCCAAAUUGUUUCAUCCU RNA 2: GGGAAUGGAUCCACAUCUACGAAUUCACGAGGAUGAAACAAUUUGGAGAAGCGAAGAUCGGAAGAGCACACGU	Kd	8.5
target 1 insU 3' of 4,insG 3' of 1 (mixed) RNA 1: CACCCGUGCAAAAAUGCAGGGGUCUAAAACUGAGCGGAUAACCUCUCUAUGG RNA 2: GGGAAUGGAUCCACAUCUACGAAUUCGUACCAUAGAGAGGUUAUCCGCUUCAGCCGAGAUCGGAAGAGCACACGU	Kd	6.8
target 2 MT 5'PFS GCU 3'PFS CCA (mixed) RNA 1: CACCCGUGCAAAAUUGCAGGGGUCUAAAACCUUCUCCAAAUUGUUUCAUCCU RNA 2: GGGAAUGGAUCCACAUCUACGAAUUCGCUAGGAUGAAACAAUUUGGAGAAGCCAAGAUCGGAAGAGCACACGU	Kd	25
target 1 G5A,G13C (mixed) RNA 1: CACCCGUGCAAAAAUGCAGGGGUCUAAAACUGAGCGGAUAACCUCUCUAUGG RNA 2: GGGAAUGGAUCCACAUCUACGAAUUCGUACCAUAGAGACGUUAUCCACUCACCGAGAUCGGAAGAGCACACGU	Kd	50
target 2 MT 5'PFS UUU 3'PFS UAC (mixed) RNA 1: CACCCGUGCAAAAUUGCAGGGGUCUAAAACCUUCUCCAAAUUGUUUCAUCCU RNA 2: GGGAAUGGAUCCACAUCUACGAAUUCUUUAGGAUGAAACAAUUUGGAGAAGUACAGAUCGGAAGAGCACACGU	Kd	9.1
target 1 MT 5'PFS UAG 3'PFS UUG (mixed) RNA 1: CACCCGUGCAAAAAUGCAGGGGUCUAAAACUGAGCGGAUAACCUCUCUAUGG RNA 2: GGGAAUGGAUCCACAUCUACGAAUUCUAGCCAUAGAGAGGUUAUCCGCUCAUUGAGAUCGGAAGAGCACACGU	Kd	12.9
